# System: biomarker (antibody) in serum samples from patients with symptoms of tuberculosis
# Format: binding, human
# conditionLabel: serum sample 63 TB−
Marks after values point to notes of the source that are not given here.
measurementKind: ELISA absorbance at 492 nm

[in] Sample CCCCCCCCCCCCCCCCCCCCCC[C@@H](C(=O)OC[C@H]1O[C@H](OC)[C@@H](O)[C@@H]1O)[C@H](O)CCCCCCCCCCCCCCCCC[C@H]1C[C@H]1CCCCCCCCCCCCCCCC[C@@H](OC)[C@@H](C)CCCCCCCCCCCCCCCCCC [Antigen E] — what was its ELISA absorbance at 492 nm?
[out] 0.22

[in] Also need CCCCCCCCCCCCCCCCCCCCCCCC[C@@H](C(=O)OC[C@H]1O[C@H](OC)[C@@H](O)[C@@H]1O)[C@H](O)CCCCCCCCCCC[C@H]1CC1CCCCCCCCCCCCCC[C@H]1C[C@H]1CCCCCCCCCCCCCCCCCCCC (some centres unmarked) [Antigen F] , thanks.
[out] 0.25

[in] Can you handle CCCCCCCCCCCCCCCCCCCCCC[C@@H](C(=O)OC[C@H]1O[C@H](OC)[C@@H](O)[C@@H]1O)[C@H](O)CCCCCCCCCCCCCCCCC[C@@H]1C[C@@H]1CCCCCCCCCCCCCCCC[C@@H](OC)[C@@H](C)CCCCCCCCCCCCCCCCCC [Antigen A] next?
[out] 0.16

[in] Now this one: CCCCCCCCCCCCCCCCCCCCCC[C@@H](C(=O)OC[C@H]1O[C@H](OC)[C@@H](O)[C@@H]1O)[C@H](O)CCCCCCCCCCCCCCC[C@@H]1C[C@@H]1CCCCCCCCCCCCCCCCCCC(=O)C(C)CCCCCCCCCCCCCCCCCC (some centres unmarked) [Antigen C]
[out] 0.26*

[in] Same for CCCCCCCCCCCCCCCCCCCCCCCC[C@@H](C(=O)OC[C@H]1O[C@H](OC)[C@@H](O)[C@@H]1O)[C@H](O)CCCCCCCCCCCCCCCCC[C@@H]1C[C@@H]1CCCCCCCCCCCCCCCC[C@@H](OC)[C@@H](C)CCCCCCCCCCCCCCCCCC [Antigen B]
[out] 0.21
